The following compounds are shown together with reported Cellular Reporter Assay Amax values.
Target: RORγt (Homo sapiens, UniProt P51449)
Construct: The plasmid of pFN26A-RORγt-LBD and pG14.35 (Promega, Cat. No. E1370) were co-transfected into HEK 293 cells; expressed in transfected cells; host or cells: HEK 293 cells (Cat. No. GNHu18)
Sequence (P51449 269-508 limits assumed): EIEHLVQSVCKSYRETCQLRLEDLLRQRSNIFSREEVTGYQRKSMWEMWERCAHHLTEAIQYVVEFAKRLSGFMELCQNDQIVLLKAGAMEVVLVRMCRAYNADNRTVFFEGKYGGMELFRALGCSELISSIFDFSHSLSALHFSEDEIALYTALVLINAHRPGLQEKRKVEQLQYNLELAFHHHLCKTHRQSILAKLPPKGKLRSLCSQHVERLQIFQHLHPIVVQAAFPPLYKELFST
Assay: RORγt cellular reporter gene detection assay;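 note: Ursolic Acid added as 5 µL of 20 µM medium per well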
Format: cell-based
Conditions: upper activation limit; HEK 293 cells, in presence of antagonist Ursolic acid, 24 hrs
Output spec: single numeric token, no unit.

Solved cases below.
(Q) Consider the compound C[C@@]1(O)CCN2c3ccc(-c4cc(F)cc(OC(F)F)c4)cc3N(S(=O)(=O)c3cccc(C(F)(F)F)c3)C[C@@H]2C1 [Example 107] . State its measured Cellular Reporter Assay Amax.
(A) 3.0

(Q) Name the recorded Cellular Reporter Assay Amax of the compound listed here: CC1(C)C=C(c2ccc3c(c2)N(S(=O)(=O)c2cccc(C(F)(F)F)c2)C[C@@H]2CNCCN32)CC(C)(C)O1 [Example 13]
(A) 1.7

(Q) Quote Cellular Reporter Assay Amax reported for C/C(=C\c1ccc2c(c1)N(S(=O)(=O)c1cccc(C(F)(F)F)c1)C[C@@H]1CN(C(=O)CC#N)CCN21)c1c(F)cccc1Cl [Example 30] please.
(A) 4.0

Others:
(Q) Give me measured Cellular Reporter Assay Amax, please, for this compound: CC1(C)C=C(c2ccc3c(c2)N(S(=O)(=O)c2cccc(C(F)(F)F)c2)C[C@@H]2CN(S(C)(=O)=O)CCN32)CC(C)(C)O1 [Example 19]
(A) 2.0

(Q) Quickly give me recorded Cellular Reporter Assay Amax for O=S(=O)(c1cccc(C(F)(F)F)c1)N1C[C@@H]2CN(C(CO)CO)CCN2c2ccc(-c3cc(F)cc(OC(F)F)c3)cc21 [Example 70]
(A) 4.2

(Q) // Input: C/C(=C\c1ccc2c(c1)N(S(=O)(=O)c1cccc(C(F)(F)F)c1)C[C@@H]1CN(C(C#N)(CO)CO)CCN21)c1c(F)cccc1Cl [Example 73] . Output its Cellular Reporter Assay Amax only.
(A) 4.6

====

Target: UniProt:P51449
Sequence (P51449 269-508 limits assumed): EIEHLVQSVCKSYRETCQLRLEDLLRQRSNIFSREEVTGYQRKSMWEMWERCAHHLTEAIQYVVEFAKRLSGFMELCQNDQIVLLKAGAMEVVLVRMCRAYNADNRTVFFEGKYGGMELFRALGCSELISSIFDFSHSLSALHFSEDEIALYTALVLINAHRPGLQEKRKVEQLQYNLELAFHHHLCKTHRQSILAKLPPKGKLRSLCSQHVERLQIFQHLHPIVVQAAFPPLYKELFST
Test: Time-resolved fluorescence resonance energy-transfer assay (TR-FRET), co-activator peptide recruitment
Details: His-RORγt-LBD 30 nM, SRC peptide 500 nM; agonistic activity; averages of one or more measurements; read-out: TR-FRET Biochemical EC50/
Listed molecules paired with reported pEC50
Conceptually, pEC50 converts a concentration in mol/L into minus its log10.

(Q) # return pEC50 for `O=S(=O)(c1cccc(C(F)(F)F)c1)N1CCNc2ccc(-c3cc(F)cc(OC(F)F)c3)cc21` , test system: UniProt:P51449
(A) 7.74

(Q) Provide measured pEC50 on UniProt:P51449 for `NS(=O)(=O)N1CCN2c3ccc(/C=C/c4c(Cl)cccc4C(F)(F)F)cc3N(S(=O)(=O)c3cccc(C(F)(F)F)c3)C[C@@H]2C1` please.
(A) 7.52

(Q) Look up and report pEC50, with UniProt:P51449 as system, for `N#CCC(=O)N1CCN2c3ccc(-c4cc(F)cc(OC(F)F)c4)cc3N(S(=O)(=O)c3cccc(C(F)(F)F)c3)C[C@@H]2C1`
(A) 7.83

(Q) Report pEC50 from UniProt:P51449 testing of `CN1c2ccc(C3CC(C)(C)OC(C)(C)C3)cc2N(S(=O)(=O)c2cccc(C(F)(F)F)c2)C[C@@H]1CCC(=O)O`
(A) 7.50

(Q) Fill in pEC50 for `C[C@@]1(O)CCN2c3ccc(-c4cc(F)cc(OC(F)F)c4)cc3N(S(=O)(=O)c3cccc(C(F)(F)F)c3)C[C@@H]2C1` tested with UniProt:P51449.
(A) 7.01

(Q) Tell me its pEC50 on UniProt:P51449: `C/C(=C\c1ccc2c(c1)N(S(=O)(=O)c1cccc(C(F)(F)F)c1)C[C@@H]1CN(C3(C#N)CCC3)CCN21)c1c(F)cccc1Cl`
(A) 8.18

(Q) Supply pEC50 measured with UniProt:P51449 for `C/C(=C\c1ccc2c(c1)N(S(=O)(=O)c1cccc(C(F)(F)F)c1)C[C@@H]1CN(C[C@H](O)CO)CCN21)c1c(F)cccc1Cl` .
(A) 7.39
